Read-out: Transforming growth factor beta 1 (TGFb1), TGFB1 (gene 7040)
Assay: BSK_BE3C_TGFb1: BioMAP Diversity Plus: BE3C Assay for Transforming growth factor beta 1 (TGFb1) Biomarker Activity (AID 2283036;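 for outcome: TGF-b1 protein level measured by ELISA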)
Test context: primary human bronchial epithelial cells; actives raise or lower the signal
The source made the active and inactive calls. Rule for the calls: active = hit-call score of the fitted dose curve at least 0.9, where 1 is the maximum; inactive = score below 0.9.
Choose one outcome from this list and give only that: active, inactive

Some solved cases for reference:
- Molecule: "COP(=S)(OC)Oc1ccc(S(=O)(=O)N(C)C)cc1"
  Class name: "inactive"
- Molecule: "COP(=S)(OC)Oc1cc(Cl)c(Cl)cc1Cl"
  Class name: "inactive"
- Molecule: "CC(C)(C)CC(C)(C)c1ccc(O)cc1"
  Class name: "active"
- Molecule: "CC(=O)C(Cl)C(=O)N(C)C (stereo not given)"
  Class name: "inactive"
- Molecule: "Nc1cccc2ccccc12"
  Class name: "inactive"
- Molecule: "Cc1ccccc1N"
  Class name: "inactive"

Query: Assay outcome for `CC(C)CCCCCCOC(=O)c1ccccc1C(=O)OCCCCCCC(C)C` : what was it?
Result: inactive

Query: Assay outcome for `CC(C)c1ccc(CO)cc1` : what was it?
Result: inactive

Query: Assay outcome for `CCCCCCCCC(=O)NCc1ccc(O)c(OC)c1` : what was it?
Result: inactive

Query: Assay outcome for `Nc1ccc(-c2ccc(N)c(Cl)c2)cc1Cl` : what was it?
Result: inactive

Query: Assay outcome for `O=Cc1cccc(Oc2ccccc2)c1` : what was it?
Result: inactive

Query: Assay outcome for `COC[C@H](C)N(C(=O)CCl)c1c(C)csc1C` : what was it?
Result: inactive

Query: Assay outcome for `CC(C)(c1ccccc1)c1ccc(O)c(C(C)(C)c2ccccc2)c1` : what was it?
Result: active

Query: Assay outcome for CCSC(C)CC1CC(=O)C(C(CC)=NOC/C=C/Cl)=C(O)C1 (stereo not given) : what was it?
Result: inactive

Query: Assay outcome for `COc1cc(-c2ccc(N)c(OC)c2)ccc1N` : what was it?
Result: inactive

Query: Assay outcome for `CCOP(=S)(OCC)SCCS(=O)(=O)CC` : what was it?
Result: inactive

###

Assay: BSK_CASM3C_Proliferation: Cell Proliferation Assessment in the BioMAP Diversity Plus: CASM3C Assay (AID 2283047);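 note: sulforhodamine B total protein stain as relative cell number at 560 nm; sub-confluent cells exposed 48 h before staining; fitted both ways against DMSO so gain or loss of cell number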
Test context: primary human coronary artery smooth muscle cells
Active and inactive are the calls of the source. How the source made its calls: active means hit-call score of the fitted dose curve at least 0.9, where 1 is the maximum; inactive means score below 0.9.
Choose one outcome from this list and give only that: active, inactive

Some solved cases for reference:
- Smiles str: "O=[N+]([O-])c1ccc2c3c(cccc13)CC2"
  Class name: "inactive"
- Smiles str: "ClCC(Cl)CCl"
  Class name: "inactive"
- Smiles str: "Cc1ccccc1N"
  Class name: "inactive"
- Smiles str: "COC[C@H](C)N(C(=O)CCl)c1c(C)csc1C"
  Class name: "inactive"
- Smiles str: "CCN1CCC2(CC1)COc1cc3c(cc12)N(C(=O)c1ccc(-c2ccc(-c4nnc(C)o4)cc2C)cc1)CC3"
  Class name: "active"
- Smiles str: "Oc1ccc(-c2ccccc2)cc1"
  Class name: "active"
- Smiles str: "BrCCBr"
  Class name: "active"
- Smiles str: "Oc1c(I)cc(I)cc1I"
  Class name: "inactive"

Query: Assay outcome for `CC(C)(c1ccccc1)c1ccc(O)c(C(C)(C)c2ccccc2)c1` : what was it?
Result: active

Query: Assay outcome for `CCOC(=O)/C=C(C)/C=C/C[C@@H](C)CCCC(C)C` : what was it?
Result: active

Query: Assay outcome for `ClC1=C(Cl)[C@]2(Cl)[C@H]3[C@H]([C@H]4C=C[C@H]3C4)[C@@]1(Cl)C2(Cl)Cl` : what was it?
Result: active

Query: Assay outcome for `NC(=S)Nc1ccccc1` : what was it?
Result: inactive

Query: Assay outcome for `COC(=O)Cc1ccccc1` : what was it?
Result: inactive

Query: Assay outcome for `CC(C)CCCCCCOC(=O)c1ccccc1C(=O)OCCCCCCC(C)C` : what was it?
Result: inactive

Query: Assay outcome for `O=S(=O)(c1ccc(Cl)cc1)c1ccc(Cl)cc1` : what was it?
Result: inactive

Query: Assay outcome for `CC(=O)[O][Hg][c]1ccccc1` : what was it?
Result: active
